These measurements were taken from patent US7384629B2.

Could you please report measured Growth mm-in-diam, on agar for the items listed next?
# Test system: Hirsutella rhossiliensis
# TEST SUMMARY: Effect of carbon source on growth, sporulation and spore germination
# ASSAY CONTEXT: carbon source 4 g/liter carbon; isolate ATCC46487; 5 weeks

OC[C@H]1O[C@H](OCC2O[C@@H](O)[C@H](O)[C@@H](O)[C@@H]2O)[C@H](O)[C@@H](O)[C@H]1O (stereo partly drawn) :: 35.0 mm-in-diam
OC[C@H]1O[C@H](O[C@H]2O[C@H](CO)[C@@H](O)[C@H](O)[C@H]2O)[C@H](O)[C@@H](O)[C@@H]1O [D(+) trehalose] :: 36.5 mm-in-diam

Proceed to the following item.
Prompt line: Request the reported Growth mm-in-diam, on agar associated with OC[C@H]1O[C@@H](O[C@H]2[C@H](O)[C@@H](O)[C@H](O)O[C@@H]2CO)[C@H](O)[C@@H](O)[C@@H]1O [D-(+)-cellubiose]
Response line: 33.0 mm-in-diam

====

# Tested on: Hirsutella rhossiliensis
# TEST SUMMARY: Effect of carbon source on growth, sporulation and spore germination
# ASSAY CONTEXT: carbon source 4 g/liter carbon; isolate ATCC46487; 5 weeks
Could you please report measured Growth mm-in-diam, on agar for the items listed next?
Answers are plain numbers, in mm-in-diam.

# example entries with known answers
O=C[C@@H](O)[C@H](O)[C@H](O)CO [D-(−)-arabinose] :: 18.0
OC[C@H]1O[C@H](O[C@H]2[C@H](O)[C@@H](O)[C@H](O)O[C@@H]2CO)[C@H](O)[C@@H](O)[C@@H]1O [Maltose monohydrate] :: 34.3

Provide reported Growth mm-in-diam, on agar for each item, in the same order as listed.
1. OC[C@@H](O)[C@@H](O)[C@H](O)[C@@H](O)CO
2. O=C(CO)[C@@H](O)[C@H](O)[C@H](O)CO [D(−)fructose]
3. O=C[C@H](O)[C@H](O)[C@H](O)CO [D(−) ribose]

Response line:
1. 30.3
2. 16.2
3. 15.5

====

Could you please report measured Sporulation 10^3/cm^2, on agar for the items listed next?
# System: Hirsutella rhossiliensis
# TEST SUMMARY: Effect of carbon source on growth, sporulation and spore germination
# ASSAY CONTEXT: carbon source; isolate JA16-1; 5 weeks

OC[C@@H](O)[C@@H](O)[C@H](O)[C@@H](O)CO :: 4.2 10^3/cm^2
O=C[C@H](O)[C@H](O)[C@H](O)CO [D(−) ribose] :: 0.0 10^3/cm^2
O=C(CO)[C@@H](O)[C@H](O)[C@@H](O)CO [L-(−)-sorbose] :: 0.0 10^3/cm^2
O.OC[C@H]1O[C@@H](O[C@H]2[C@H](O)[C@@H](O)[C@@H](O)O[C@@H]2CO)[C@H](O)[C@@H](O)[C@H]1O [a-lactose monohydrate] :: 37.3 10^3/cm^2
O=C[C@H](O)[C@@H](O)[C@H](O)CO [D(+)xylose] :: 2.5 10^3/cm^2

Provide reported Sporulation 10^3/cm^2, on agar for each item, in the same order as listed.
1. OC[C@H]1O[C@H](O[C@H]2O[C@H](CO)[C@@H](O)[C@H](O)[C@H]2O)[C@H](O)[C@@H](O)[C@@H]1O [D(+) trehalose]
2. O=C[C@H](O)[C@@H](O)[C@H](O)[C@H](O)CO [D-(+)-glucose]
3. O=C(CO)[C@@H](O)[C@H](O)[C@H](O)CO [D(−)fructose]

Response line:
1: 5.2 10^3/cm^2; 2: 28.1 10^3/cm^2; 3: 0.0 10^3/cm^2

====

# Tested on: Hirsutella rhossiliensis
# TEST SUMMARY: Effect of carbon source on growth, sporulation and spore germination
# ASSAY CONTEXT: carbon source; isolate ATCC46487; 5 weeks
EXPERIMENTAL READOUT: Sporulation 10^3/cm^2, on agar

# example entries with known answers
OC[C@@H](O)[C@@H](O)[C@H](O)[C@H](O)CO :: 15.9 10^3/cm^2
O=C[C@H](O)[C@H](O)[C@H](O)CO [D(−) ribose] :: 61.3 10^3/cm^2
OC[C@H]1O[C@H](OCC2O[C@@H](O)[C@H](O)[C@@H](O)[C@@H]2O)[C@H](O)[C@@H](O)[C@H]1O (some centres unmarked) :: 41.9 10^3/cm^2
OC[C@H]1O[C@@](CO)(O[C@H]2O[C@H](CO)[C@@H](O)[C@H](O)[C@H]2O)[C@@H](O)[C@@H]1O :: 38.9 10^3/cm^2

Provide reported Sporulation 10^3/cm^2, on agar for each item, in the same order as listed.
1. O=C(CO)[C@@H](O)[C@H](O)[C@@H](O)CO [L-(−)-sorbose]
2. O=C(O)CC(O)(CC(=O)O)C(=O)O
3. OC[C@H]1O[C@H](O[C@H]2O[C@H](CO)[C@@H](O)[C@H](O)[C@H]2O)[C@H](O)[C@@H](O)[C@@H]1O [D(+) trehalose]
4. OC[C@H]1O[C@H](O[C@H]2[C@H](O)[C@@H](O)[C@H](O)O[C@@H]2CO)[C@H](O)[C@@H](O)[C@@H]1O [Maltose monohydrate]

Response line:
["62.5 10^3/cm^2", "39.5 10^3/cm^2", "172.6 10^3/cm^2", "21.9 10^3/cm^2"]

====

# Tested on: Hirsutella rhossiliensis
# TEST SUMMARY: Effect of carbon source on growth, sporulation and spore germination
# ASSAY CONTEXT: carbon source; isolate ATCC46487; 5 weeks
EXPERIMENTAL READOUT: Sporulation 10^3/cm^2, on agar

# example entries with known answers
O=C[C@H](O)[C@@H](O)[C@H](O)CO [D(+)xylose] :: 0.0 10^3/cm^2
O=C[C@H](O)[C@@H](O)[C@H](O)[C@H](O)CO [D-(+)-glucose] :: 7.7 10^3/cm^2
O=C(CO)[C@@H](O)[C@H](O)[C@H](O)CO [D(−)fructose] :: 50.2 10^3/cm^2
O.OC[C@H]1O[C@@H](O[C@H]2[C@H](O)[C@@H](O)[C@@H](O)O[C@@H]2CO)[C@H](O)[C@@H](O)[C@H]1O [a-lactose monohydrate] :: 2.4 10^3/cm^2

Proceed to the following item.
Prompt line: Request the reported Sporulation 10^3/cm^2, on agar associated with OC[C@H]1O[C@@H](O[C@H]2[C@H](O)[C@@H](O)[C@H](O)O[C@@H]2CO)[C@H](O)[C@@H](O)[C@@H]1O [D-(+)-cellubiose]
Response line: 13.8 10^3/cm^2

====

# Tested on: Hirsutella rhossiliensis
# TEST SUMMARY: Effect of nitrogen source on growth, sporulation and spore germination
# ASSAY CONTEXT: nitrogen source; isolate OWVT-1; 5 weeks
EXPERIMENTAL READOUT: growth in liquit culture (visual rating)

CSCCC(N)C(=O)O (racemic) :: I

====

# Tested on: Hirsutella rhossiliensis
# ASSAY CONTEXT: named vitamin excluded; isolate JA16-1; 5 weeks
EXPERIMENTAL READOUT: Sporulation 10^3/cm^2, on agar

Nc1ccc(C(=O)O)cc1 :: 35.1 10^3/cm^2
Nc1nc2ncc(CNc3ccc(C(=O)N[C@@H](CCC(=O)O)C(=O)O)cc3)nc2c(=O)[nH]1 :: 24.2 10^3/cm^2
O[C@H]1[C@H](O)[C@@H](O)[C@H](O)[C@@H](O)[C@H]1O :: 16.7 10^3/cm^2

Proceed to the following item.
Prompt line: State its Sporulation 10^3/cm^2, on agar on Hirsutella rhossiliensis: O=C(O)c1cccnc1
Response line: 12.2 10^3/cm^2

====

Could you please report measured Growth rate mm-in-diam, on agar for the items listed next?
# Test system: Hirsutella rhossiliensis
# ASSAY CONTEXT: named vitamin excluded from medium with all other vitamins; isolate ATCC46487; 5 weeks
Give bare numbers, in mm-in-diam.

Provide reported Growth rate mm-in-diam, on agar for each item, in the same order as listed.
1. Cc1cc2nc3c(=O)[nH]c(=O)nc-3n(C[C@H](O)[C@H](O)[C@H](O)CO)c2cc1C [Riboflavin, UPS (VB2)]
2. CC(C)(CO)C(O)C(=O)NCCC(=O)O (racemic) [DL-pantothenic acid]

Response line:
1. 41.0
2. 39.5

Provide reported Growth rate mm-in-diam, on agar for each item, in the same order as listed.
1. Nc1ccc(C(=O)O)cc1 [p-Amino-benzoic acid (PABA)]
2. Nc1nc2ncc(CNc3ccc(C(=O)N[C@@H](CCC(=O)O)C(=O)O)cc3)nc2c(=O)[nH]1 [Folic acid]

Response line:
41.5
39.3

====

# Test system: Hirsutella rhossiliensis
# ASSAY CONTEXT: named vitamin excluded; isolate JA16-1; 5 weeks
EXPERIMENTAL READOUT: Sporulation 10^3/cm^2, on agar

# example entries with known answers
Cc1cc2nc3c(=O)[nH]c(=O)nc-3n(C[C@H](O)[C@H](O)[C@H](O)CO)c2cc1C :: 13.2 10^3/cm^2
CC(C)(CO)C(O)C(=O)NCCC(=O)O (racemic) :: 17.1 10^3/cm^2
Cc1ncc(CO)c(CO)c1O :: 16.5 10^3/cm^2
Cc1ncc(C[n+]2csc(CCO)c2C)c(N)n1 :: 30.4 10^3/cm^2

Proceed to the following item.
Prompt line: Request the reported Sporulation 10^3/cm^2, on agar associated with O=C(O)CCCC[C@@H]1SC[C@@H]2NC(=O)N[C@@H]21
Response line: 14.1 10^3/cm^2
